Target: UniProtKB P04150
Sequence (P04150 whole entry): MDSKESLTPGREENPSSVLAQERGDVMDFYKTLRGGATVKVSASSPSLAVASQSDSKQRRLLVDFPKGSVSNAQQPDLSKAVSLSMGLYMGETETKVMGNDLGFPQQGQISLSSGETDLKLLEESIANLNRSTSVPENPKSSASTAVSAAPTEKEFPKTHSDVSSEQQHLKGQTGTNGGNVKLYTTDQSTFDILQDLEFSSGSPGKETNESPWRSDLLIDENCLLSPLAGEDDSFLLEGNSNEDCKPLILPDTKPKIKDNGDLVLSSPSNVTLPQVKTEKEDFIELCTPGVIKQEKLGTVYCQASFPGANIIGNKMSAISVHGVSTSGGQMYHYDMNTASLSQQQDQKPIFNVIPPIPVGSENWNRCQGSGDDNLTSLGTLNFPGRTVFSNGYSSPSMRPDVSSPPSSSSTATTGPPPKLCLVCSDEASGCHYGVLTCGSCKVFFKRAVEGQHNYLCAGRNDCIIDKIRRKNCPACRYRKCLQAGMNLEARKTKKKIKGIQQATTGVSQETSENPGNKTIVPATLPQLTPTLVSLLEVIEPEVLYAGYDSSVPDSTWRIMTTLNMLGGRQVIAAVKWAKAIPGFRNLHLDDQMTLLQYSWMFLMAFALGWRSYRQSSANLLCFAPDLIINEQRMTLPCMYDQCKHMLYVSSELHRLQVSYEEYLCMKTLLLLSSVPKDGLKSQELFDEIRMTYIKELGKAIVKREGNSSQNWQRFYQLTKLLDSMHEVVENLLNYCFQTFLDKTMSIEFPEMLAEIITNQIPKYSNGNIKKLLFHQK
Assay: Transactivation activity of glucocorticoid receptor in HFF assessed as induction of aromatase activity by measuring beta-estradiol activity after 18 to 24 hrs by ELISA
Conditions: read-out: EC50
Kindly state EC50 for each of the entries shown.

# annotated cases, reported EC50 shown
>  <compound>
COc1ccc(F)cc1C(C)(C)CC(O)(Cc1cc2ccc(C(F)(F)F)cc2[nH]1)C(F)(F)F (racemic)

>  <measurement-target>
UniProtKB P04150

>  <EC50>
> 2000 nM

$$$$
>  <compound>
COc1ccc(F)cc1C(C)(C)CC(O)(Cc1cc2cccc(C#N)c2[nH]1)C(F)(F)F (racemic)

>  <measurement-target>
UniProtKB P04150

>  <EC50>
> 2000 nM

$$$$

Here's the next entry for you.
Please look up its EC50: COc1ccc(F)cc1C(C)(C)CC(O)(Cc1cc2cccc(C(F)(F)F)c2[nH]1)C(F)(F)F (racemic)
> 2000 nM

###

Target: Mineralocorticoid receptor (Homo sapiens, UniProt P08235)
Sequence (P08235 whole entry): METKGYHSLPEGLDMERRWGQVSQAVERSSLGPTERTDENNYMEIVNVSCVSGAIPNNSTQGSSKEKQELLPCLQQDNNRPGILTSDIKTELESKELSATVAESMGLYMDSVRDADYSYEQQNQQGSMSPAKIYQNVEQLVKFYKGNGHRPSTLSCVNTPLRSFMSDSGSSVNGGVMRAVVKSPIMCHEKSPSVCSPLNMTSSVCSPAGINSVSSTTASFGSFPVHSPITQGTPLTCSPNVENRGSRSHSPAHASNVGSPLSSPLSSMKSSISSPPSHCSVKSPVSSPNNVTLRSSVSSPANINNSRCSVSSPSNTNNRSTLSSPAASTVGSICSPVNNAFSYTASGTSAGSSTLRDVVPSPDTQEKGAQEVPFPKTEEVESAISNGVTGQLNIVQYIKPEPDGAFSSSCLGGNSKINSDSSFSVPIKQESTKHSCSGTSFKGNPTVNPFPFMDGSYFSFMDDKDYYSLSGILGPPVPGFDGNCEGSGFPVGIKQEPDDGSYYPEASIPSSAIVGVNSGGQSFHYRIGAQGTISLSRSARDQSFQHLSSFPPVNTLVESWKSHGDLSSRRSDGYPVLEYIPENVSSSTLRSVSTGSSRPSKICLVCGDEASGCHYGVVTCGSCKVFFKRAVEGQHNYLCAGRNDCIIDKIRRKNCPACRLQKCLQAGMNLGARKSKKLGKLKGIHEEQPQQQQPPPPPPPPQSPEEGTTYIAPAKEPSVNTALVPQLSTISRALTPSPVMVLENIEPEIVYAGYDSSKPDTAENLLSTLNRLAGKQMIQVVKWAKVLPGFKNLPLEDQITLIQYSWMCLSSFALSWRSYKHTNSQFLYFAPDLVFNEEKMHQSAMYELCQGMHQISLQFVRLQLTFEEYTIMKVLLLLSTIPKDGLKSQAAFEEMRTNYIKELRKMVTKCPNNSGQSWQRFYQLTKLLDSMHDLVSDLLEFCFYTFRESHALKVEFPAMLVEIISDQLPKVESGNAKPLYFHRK
Experiment: Displacement of tetramethylrhodamine-labeled Dexamethasone from human recombinant mineralocorticoid receptor expressed in baculovirus infected insect cells by fluorescence polarization assay
pIC50: −log10 of the molar value.
Class 1.0: pIC50 at least 6. Class 0.0: pIC50 below 6.

>  <compound>
COc1ccc(F)cc1C(C)(C)CC(O)(Cc1cc2cc(C(F)(F)F)ccc2[nH]1)C(F)(F)F (racemic)

>  <measurement-target>
Mineralocorticoid receptor (Homo sapiens, UniProt P08235)

>  <group-label>
0.0

$$$$
>  <compound>
COc1ccc(F)cc1C(C)(C)CC(O)(Cc1cc2c(C(F)(F)F)cccc2[nH]1)C(F)(F)F (racemic)

>  <measurement-target>
Mineralocorticoid receptor (Homo sapiens, UniProt P08235)

>  <group-label>
0.0

$$$$
>  <compound>
CC(C)(CC(O)(Cc1cc2ccc(C#N)cc2[nH]1)C(F)(F)F)c1cc(S(C)(=O)=O)cc2c1OCC2 (racemic)

>  <measurement-target>
Mineralocorticoid receptor (Homo sapiens, UniProt P08235)

>  <group-label>
1.0

$$$$
>  <compound>
COc1ccc(F)cc1C(C)(C)CC(O)(Cc1cc2cccc(F)c2[nH]1)C(F)(F)F (racemic)

>  <measurement-target>
Mineralocorticoid receptor (Homo sapiens, UniProt P08235)

>  <group-label>
1.0

$$$$
>  <compound>
COc1ccc(F)cc1C(C)(C)CC(O)(Cc1cc2cccc(C(F)(F)F)c2[nH]1)C(F)(F)F (racemic)

>  <measurement-target>
Mineralocorticoid receptor (Homo sapiens, UniProt P08235)

>  <group-label>
0.0

$$$$

Does pIC50 meet or surpass 6 for COc1ccc(F)cc1C(C)(C)CC(O)(Cc1cc2cc(C#N)ccc2[nH]1)C(F)(F)F (racemic) ?
1.0

Try this compound next: COc1ccc(F)cc1C(C)(C)CC(O)(Cc1cc2cc(F)ccc2[nH]1)C(F)(F)F (racemic)
1.0

Try this compound next: Cc1cc2c(c(C(C)(C)CC(O)(Cc3cc4ccccc4[nH]3)C(F)(F)F)c1)OCC2 (racemic)
1.0

Try this compound next: CC(C)(CC(O)(Cc1cc2ccccc2[nH]1)C(F)(F)F)c1cc(Br)cc2c1OCC2 (racemic)
1.0

###

Biological target: Progesterone receptor (Homo sapiens, UniProt P06401)
Sequence (P06401 whole entry): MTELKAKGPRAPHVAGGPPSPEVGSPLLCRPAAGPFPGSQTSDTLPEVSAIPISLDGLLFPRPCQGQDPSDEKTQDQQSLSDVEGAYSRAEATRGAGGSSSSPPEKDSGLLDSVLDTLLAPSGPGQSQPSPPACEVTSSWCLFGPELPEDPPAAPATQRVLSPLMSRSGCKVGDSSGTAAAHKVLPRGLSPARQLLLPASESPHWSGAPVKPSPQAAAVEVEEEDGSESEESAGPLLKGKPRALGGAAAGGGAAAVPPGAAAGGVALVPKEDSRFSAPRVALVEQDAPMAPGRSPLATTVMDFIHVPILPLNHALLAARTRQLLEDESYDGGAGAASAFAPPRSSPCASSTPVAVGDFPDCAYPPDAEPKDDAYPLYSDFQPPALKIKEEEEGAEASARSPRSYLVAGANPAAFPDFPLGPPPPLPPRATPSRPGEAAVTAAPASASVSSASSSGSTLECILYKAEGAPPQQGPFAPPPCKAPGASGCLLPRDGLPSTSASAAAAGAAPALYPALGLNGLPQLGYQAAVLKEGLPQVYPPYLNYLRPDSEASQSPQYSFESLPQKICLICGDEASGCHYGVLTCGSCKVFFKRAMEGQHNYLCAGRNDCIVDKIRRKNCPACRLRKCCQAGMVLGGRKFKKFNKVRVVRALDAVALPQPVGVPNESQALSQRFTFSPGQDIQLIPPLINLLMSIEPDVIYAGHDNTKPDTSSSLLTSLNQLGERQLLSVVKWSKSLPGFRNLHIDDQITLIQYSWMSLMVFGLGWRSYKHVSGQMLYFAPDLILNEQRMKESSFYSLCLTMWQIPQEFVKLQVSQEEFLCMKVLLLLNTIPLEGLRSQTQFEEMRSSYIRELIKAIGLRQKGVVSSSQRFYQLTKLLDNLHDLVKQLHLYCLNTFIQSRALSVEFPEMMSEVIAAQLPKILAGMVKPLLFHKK
Experiment: Displacement of tetramethylrhodamine-labeled RU-486 from human recombinant progesterone receptor expressed in baculovirus infected insect cells by fluorescence polarization assay
Kindly state pIC50 for each of the entries shown.
Give bare numbers, as −log10 of the molar value.

# annotated cases, reported pIC50 shown
>  <compound>
CC(C)(CC(O)(Cc1cc2ccccc2[nH]1)C(F)(F)F)c1cc(C#N)cc2c1OCC2 (racemic)

>  <pIC50>
6.15

$$$$
>  <compound>
COc1ccc(F)cc1C(C)(C)CC(O)(Cc1cc2cc(C#N)ccc2[nH]1)C(F)(F)F (racemic)

>  <pIC50>
6.09

$$$$

Report pIC50 for each item below.
1. CC(C)(C[C@@](O)(Cc1cc2ccc(C#N)cc2[nH]1)C(F)(F)F)c1cc(S(C)(=O)=O)cc2c1OCC2
2. COc1ccc(F)cc1C(C)(C)CC(O)(Cc1cc2cccc(C)c2[nH]1)C(F)(F)F (racemic)
3. COc1ccc(F)cc1C(C)(C)C[C@](O)(Cc1cc2ccccc2[nH]1)C(F)(F)F

1: 6.13; 2: 5.84; 3: 5.92

###

Molecular target: Mineralocorticoid receptor (Homo sapiens)
Assay: Displacement of tetramethylrhodamine-labeled Dexamethasone from human recombinant mineralocorticoid receptor expressed in baculovirus infected insect cells by fluorescence polarization assay
measurement-kind: pIC50
Answers are plain numbers, as −log10 of the molar value.

# annotated cases, reported pIC50 shown
>  <compound>
CC(C)(CC(O)(Cc1cc2cc(C#N)ccc2[nH]1)C(F)(F)F)c1cc(S(C)(=O)=O)cc2c1OCC2 (racemic)

>  <pIC50>
5.84

$$$$
>  <compound>
COc1ccc(F)cc1C(C)(C)CC(O)(Cc1cc2ccc(C)cc2[nH]1)C(F)(F)F (racemic)

>  <pIC50>
6.14

$$$$
>  <compound>
COc1ccc(F)cc1C(C)(C)CC(O)(Cc1cc2cc(C)ccc2[nH]1)C(F)(F)F (racemic)

>  <pIC50>
5.90

$$$$
>  <compound>
COc1ccc(F)cc1C(C)(C)C[C@](O)(Cc1cc2ccccc2[nH]1)C(F)(F)F

>  <pIC50>
5.96

$$$$
>  <compound>
COc1ccc(F)cc1C(C)(C)CC(O)(Cc1cc2cccc(C#N)c2[nH]1)C(F)(F)F (racemic)

>  <pIC50>
5.85

$$$$

Here's the next entry for you.
// fetch Mineralocorticoid receptor (Homo sapiens) pIC50 for COc1ccc(F)cc1C(C)(C)CC(O)(Cc1cc2ccc(C(F)(F)F)cc2[nH]1)C(F)(F)F (racemic)
6.04
